test: Metabolic stability with human liver microsomes; format: in vitro ADME; details: pH 7.6; pooled human liver microsomes, 37° C., 1 μM test compound, 1 mg/ml protein, NADPH; read-out: In vitro stability in human liver microsome incubations t1/2
Readout Label: half-life at 1 μM (h)

Guide cases for half-life at 1 μM, answers given:
- Smiles Input: "N#C[C@H](Cc1ccc(-c2ccc3c(c2)NC(=O)C3)cc1)NC(=O)[C@H]1NC2CCC1CC2"
  Readout Label: "half-life at 1 μM"
  Measure Unit: "h"
  Endpoint Value: 2
- Smiles Input: "CN1C(=O)Cc2ccc(-c3ccc(C[C@@H](C#N)NC(=O)[C@H]4N[C@H]5CC[C@@H]4CC5)cc3)cc21"
  Readout Label: "half-life at 1 μM"
  Measure Unit: "h"
  Endpoint Value: 1.47

1 = CS(=O)(=O)c1cc(-c2ccc(C[C@@H](C#N)NC(=O)[C@H]3NC4CCC3CC4)c(F)c2)ccc1C#N
2 = CS(=O)(=O)Nc1cccc(-c2ccc(C[C@@H](C#N)NC(=O)[C@H]3NC4CCC3CC4)cc2)c1
Task: API: POST /compare with 1 and 2 ; response names the item with higher half-life at 1 μM. # reply format: chosen label
Result: 1

====

target: recombinant human Cathepsin K (Homo sapiens (Human), UniProt P43235); assay: Inhibition of human Cathepsin K; settings: substrate Z-Gly-Pro-Arg-AMC 12.5 μM, 60 min, room temperature
Sequence (P43235 115-329): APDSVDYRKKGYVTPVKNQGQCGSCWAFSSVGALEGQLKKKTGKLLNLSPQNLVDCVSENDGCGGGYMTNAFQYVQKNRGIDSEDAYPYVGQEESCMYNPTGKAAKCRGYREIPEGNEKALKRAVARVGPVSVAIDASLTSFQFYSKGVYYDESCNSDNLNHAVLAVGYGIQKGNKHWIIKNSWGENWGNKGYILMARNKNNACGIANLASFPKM
Readout Label: IC50 (µM)

- Compound: "CS(=O)(=O)c1cc(-c2ccc(C[C@@H](C#N)NC(=O)[C@H]3NC4CCC3CC4)cc2)ccc1C#N [Example 8]"
  Measure Unit: "µM"
  Endpoint Value: 5.3
- Compound: "N#C[C@H](Cc1ccc(-c2cccc(C(N)=O)c2)cc1)NC(=O)[C@H]1NC2CCC1CC2 [Example 18]"
  Measure Unit: "µM"
  Endpoint Value: 9.7
- Compound: "N#C[C@H](Cc1ccc(-c2ccc3c(c2)NC(=O)C3)cc1)NC(=O)[C@H]1NC2CCC1CC2 [Example 2]"
  Measure Unit: "µM"
  Endpoint Value: 4.2
- Compound: "CS(=O)(=O)Nc1cccc(-c2ccc(C[C@@H](C#N)NC(=O)[C@H]3NC4CCC3CC4)cc2)c1 [Example 12]"
  Measure Unit: "µM"
  Endpoint Value: 9.9
- Compound: "CS(=O)(=O)c1cccc(-c2ccc(C[C@@H](C#N)NC(=O)[C@H]3NC4CCC3CC4)cc2)c1 [Example 10]"
  Measure Unit: "µM"
  Endpoint Value: 5.3

1 = N#Cc1ccc(-c2ccc(C[C@@H](C#N)NC(=O)[C@H]3N[C@H]4CC[C@@H]3CC4)cc2)cc1F [Example 7]
2 = N#C[C@H](Cc1ccc(-c2ccc(S(N)(=O)=O)cc2)cc1)NC(=O)[C@H]1NC2CCC1CC2 [Example 13]
Task: API: POST /compare with 1 and 2 ; response names the item with higher IC50. # reply format: chosen label
Result: 2

====

biological target: recombinant human Cathepsin K (Homo sapiens (Human)); experiment: Inhibition of human Cathepsin K; settings: substrate Z-Gly-Pro-Arg-AMC 12.5 μM, 60 min, room temperature
pIC50: −log10 of the molar value.
Readout Label: pIC50

1 = CS(=O)(=O)c1cc(-c2ccc(C[C@@H](C#N)NC(=O)[C@H]3NC4CCC3CC4)c(F)c2)ccc1C#N
2 = N#Cc1ccc(-c2ccc(C[C@@H](C#N)NC(=O)[C@H]3NC4CCC3CC4)cc2)cc1
Task: API: POST /compare with 1 and 2 ; response names the item with higher pIC50. # reply format: chosen label
Result: 1
(1: 5.57, 2: 4.83)

1 = N#C[C@H](Cc1ccc(-c2ccc3c(c2)CNC3=O)cc1)NC(=O)[C@H]1NC2CCC1CC2
2 = CS(=O)(=O)Nc1ccc(-c2ccc(C[C@@H](C#N)NC(=O)[C@H]3NC4CCC3CC4)cc2)cc1
Task: API: POST /compare with 1 and 2 ; response names the item with higher pIC50. # reply format: chosen label
Result: 2

====

target: recombinant human DPPI (Cathepsin C) (Homo sapiens (Human), UniProt P53634); assay: Inhibition of human DPPI (Cathepsin C); conditions: substrate Gly-Arg-AMC 50 μM, 30 min, room temperature
Sequence (P53634 231-394): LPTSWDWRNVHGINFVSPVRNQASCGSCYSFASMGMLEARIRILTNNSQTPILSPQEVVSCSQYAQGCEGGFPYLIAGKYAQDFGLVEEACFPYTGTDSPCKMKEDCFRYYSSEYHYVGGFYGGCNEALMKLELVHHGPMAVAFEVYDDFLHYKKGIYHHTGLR
Sequence (P53634 395-463): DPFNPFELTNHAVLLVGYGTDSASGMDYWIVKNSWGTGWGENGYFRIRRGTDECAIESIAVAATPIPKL
Sequence (P53634 25-134): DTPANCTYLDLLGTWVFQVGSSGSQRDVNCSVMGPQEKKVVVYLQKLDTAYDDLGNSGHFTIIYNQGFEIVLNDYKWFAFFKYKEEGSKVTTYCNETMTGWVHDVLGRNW
pIC50: −log10 of the molar value.
Readout Label: pIC50

Guide cases for pIC50, answers given:
- Molecule: "CCS(=O)(=O)c1ccc(-c2ccc(C[C@@H](C#N)NC(=O)[C@H]3NC4CCC3CC4)cc2)cc1"
  pIC50: 6.78
- Molecule: "N#C[C@H](Cc1ccc(-c2cccc(C(N)=O)c2)cc1)NC(=O)[C@H]1NC2CCC1CC2"
  pIC50: 6.88

a = CS(=O)(=O)c1cccc(-c2ccc(C[C@@H](C#N)NC(=O)[C@H]3NC4CCC3CC4)cc2)c1
b = N#C[C@H](Cc1ccc(-c2cc(F)c(F)c(F)c2)cc1)NC(=O)[C@H]1NC2CCC1CC2
c = N#C[C@H](Cc1ccc(-c2ccc3c(c2)CCNC3=O)cc1)NC(=O)[C@H]1NC2CCC1CC2
d = CS(=O)(=O)c1ccc(-c2ccc(C[C@@H](C#N)NC(=O)C3NC4CCC3CC4)c(F)c2)cc1C#N (some centres unmarked)
Task: Please put the entries in order of rising pIC50. Form entry: ranked labels (order as requested).
Result: b, c, a, d
(b: 6.61, c: 6.86, a: 7.13, d: 7.56)

a = N#Cc1ccc(-c2ccc(C[C@@H](C#N)NC(=O)[C@H]3N[C@H]4CC[C@@H]3CC4)cc2)cc1F
b = COCCN1C(=O)Cc2ccc(-c3ccc(C[C@@H](C#N)NC(=O)[C@H]4NC5CCC4CC5)cc3)cc21
c = N#Cc1cc(-c2ccc(C[C@@H](C#N)NC(=O)[C@H]3NC4CCC3CC4)cc2)ccn1
d = CN1C(=O)Cc2ccc(-c3ccc(C[C@@H](C#N)NC(=O)[C@H]4N[C@H]5CC[C@@H]4CC5)cc3)cc21
Task: Please put the entries in order of rising pIC50. Form entry: ranked labels (order as requested).
Result: c, b, a, d
(c: 6.60, b: 6.80, a: 7.18, d: 7.49)

a = CN1Cc2ccc(-c3ccc(C[C@@H](C#N)NC(=O)[C@H]4NC5CCC4CC5)c(F)c3)cc2C1
b = CN1C(=O)Cc2ccc(-c3ccc(C[C@@H](C#N)NC(=O)[C@H]4NC5CCC4CC5)cc3)cc21
Task: API: POST /compare with a and b ; response names the item with higher pIC50. # reply format: chosen label
Result: b

a = N#C[C@H](Cc1ccc(-c2ccc3c(c2)CC(=O)N3)cc1)NC(=O)[C@H]1NC2CCC1CC2
b = N#C[C@H](Cc1ccc(-c2ccc3c(c2)NC(=O)C3)cc1)NC(=O)[C@H]1NC2CCC1CC2
Task: API: POST /compare with a and b ; response names the item with higher pIC50. # reply format: chosen label
Result: b

====

molecular target: recombinant human DPPI (Cathepsin C) (Homo sapiens (Human), UniProt P53634); assay: Inhibition of human DPPI (Cathepsin C); conditions: substrate Gly-Arg-AMC 50 μM, 30 min, room temperature
pIC50: −log10 of the molar value.
Readout Label: pIC50

A = N#Cc1ccc(-c2ccc(C[C@@H](C#N)NC(=O)[C@H]3NC4CCC3CC4)cc2)cc1
B = N#C[C@H](Cc1ccc(-c2ccc(C(N)=O)cc2)cc1)NC(=O)[C@H]1NC2CCC1CC2
Task: API: POST /compare with A and B ; response names the item with higher pIC50. # reply format: chosen label
Result: A

====

Target: recombinant human DPPI (Cathepsin C) (Homo sapiens (Human), UniProt P53634)
Experiment: Inhibition of human DPPI (Cathepsin C)
Settings: substrate Gly-Arg-AMC 50 μM, 30 min, room temperature
Text: Inhibition of Human DPPI (Cathepsin C) Materials: Microtiterplates (Optiplate-384 F) were purchased from PerkinElmer (Prod. No. 6007270). The substrate Gly-Arg-AMC was from Biotrend (Prod.-No. 808756 Custom peptide). Bovine serum albumin (BSA; Prod. No. A3059) and Dithiothreitol (DTT; Prod. No D0632) were from Sigma. TagZyme buffer was from Riedel-de-Haen (Prod.-No. 04269), NaCl was from Merck (Prod.-No. 1.06404.1000) and morpholinoethane sulfonic acid (MES), was from Serva (Prod.-No. 29834). […]
Readout Label: IC50 (nM)

Guide cases for IC50, answers given:
- Smiles Input: "N#C[C@H](Cc1ccc(-c2ccc3c(c2)CNC3=O)cc1)NC(=O)[C@H]1NC2CCC1CC2"
  IC50 / nM: 86.7
- Smiles Input: "CS(=O)(=O)Nc1ccc(-c2ccc(C[C@@H](C#N)NC(=O)[C@H]3NC4CCC3CC4)cc2)cc1"
  IC50 / nM: 124

I = N#C[C@H](Cc1ccc(-c2ccc(S(N)(=O)=O)cc2)cc1)NC(=O)[C@H]1NC2CCC1CC2
II = CS(=O)(=O)c1cc(-c2ccc(C[C@@H](C#N)NC(=O)[C@H]3NC4CCC3CC4)cc2)ccc1C#N
Task: # compare IC50 for I vs II ; return the one with the smaller value # reply format: chosen label
Result: II
